This collection of values is drawn from patent US20090306053A1.

target: Recombinant human Src (Homo sapiens, UniProt P12931); assay: Src kinase assay (Kinase-Glo ATP consumption); conditions: 0.5 μM ATP; read-out: Kinase Inhibiting Activity (IC50) Src
Sequence (P12931 whole entry): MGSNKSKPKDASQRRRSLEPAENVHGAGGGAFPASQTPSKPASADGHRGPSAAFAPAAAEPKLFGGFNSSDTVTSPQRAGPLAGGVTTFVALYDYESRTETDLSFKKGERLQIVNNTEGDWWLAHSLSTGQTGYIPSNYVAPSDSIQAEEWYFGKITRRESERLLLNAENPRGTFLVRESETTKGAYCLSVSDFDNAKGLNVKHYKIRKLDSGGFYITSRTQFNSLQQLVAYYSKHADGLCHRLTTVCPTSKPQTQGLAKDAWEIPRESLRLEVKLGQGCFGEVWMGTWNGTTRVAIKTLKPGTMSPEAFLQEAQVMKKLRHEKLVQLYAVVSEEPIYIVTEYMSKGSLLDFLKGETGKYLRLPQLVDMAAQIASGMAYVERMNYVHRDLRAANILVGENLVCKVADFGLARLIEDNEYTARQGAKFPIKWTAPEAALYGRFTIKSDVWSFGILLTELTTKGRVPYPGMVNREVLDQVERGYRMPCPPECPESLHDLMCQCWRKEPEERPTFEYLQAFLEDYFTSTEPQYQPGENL
parameter: IC50

Give Recombinant human Src (Homo sapiens, UniProt P12931) IC50 for the following compound: CNCC(=O)N1CCCN(S(=O)(=O)c2cccc3cncc(F)c23)[C@@H](C)C1.Cl.Cl [Example 2, dihydrochloride]
> 100 µM

----------
Target: Purified bovine PKGα (Bos taurus, UniProt P00516)
Sequence (P00516 1-671): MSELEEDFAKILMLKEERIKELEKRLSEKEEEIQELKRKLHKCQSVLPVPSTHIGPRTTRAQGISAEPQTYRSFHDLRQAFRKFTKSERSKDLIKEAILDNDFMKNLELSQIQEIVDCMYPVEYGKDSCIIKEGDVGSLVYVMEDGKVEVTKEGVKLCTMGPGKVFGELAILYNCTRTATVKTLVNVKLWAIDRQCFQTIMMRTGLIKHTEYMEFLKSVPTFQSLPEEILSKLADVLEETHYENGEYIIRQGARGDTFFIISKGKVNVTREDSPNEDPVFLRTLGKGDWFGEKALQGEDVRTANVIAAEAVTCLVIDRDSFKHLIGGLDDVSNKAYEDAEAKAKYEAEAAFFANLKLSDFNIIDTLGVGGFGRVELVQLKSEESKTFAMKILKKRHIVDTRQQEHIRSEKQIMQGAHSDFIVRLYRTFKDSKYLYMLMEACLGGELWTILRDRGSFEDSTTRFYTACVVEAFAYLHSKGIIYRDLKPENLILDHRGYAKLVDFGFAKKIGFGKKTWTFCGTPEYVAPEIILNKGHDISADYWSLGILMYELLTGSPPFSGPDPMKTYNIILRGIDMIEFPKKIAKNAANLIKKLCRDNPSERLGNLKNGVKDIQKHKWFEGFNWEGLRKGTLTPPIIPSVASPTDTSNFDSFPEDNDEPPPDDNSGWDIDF
parameter: pIC50
Interpret pIC50 as the negative base-10 log of the concentration measured in mol/L.

State its pIC50 for this compound: CNCC(=O)N1CCCN(S(=O)(=O)c2cccc3cncc(F)c23)[C@@H](C)C1.Cl.Cl [Example 2, dihydrochloride]
4.55

----------
biological target: Purified rat PKC; assay: PKC kinase assay (Kinase-Glo ATP consumption); details: 1 μM ATP; read-out: Kinase Inhibiting Activity (IC50) PKC
pIC50: −log10 of the molar value.
parameter: pIC50

Fill in pIC50 for record CNCC(=O)N1CCCN(S(=O)(=O)c2cccc3cncc(F)c23)[C@@H](C)C1.Cl.Cl [Example 2, dihydrochloride]
< 4.00

----------
For each of the compounds below, state its Realative Inhibitory Activity PKG.
molecular target: Purified bovine PKGα (Bos taurus, UniProt P00516); construct: Purified bovine PKGα (Promega); purchased Promega; experiment: PKG kinase assay (Kinase-Glo ATP consumption); format: biochemical; conditions: relative ratio to ROCKII (=1.0), based on IC50 values
Counter-ions that a name gives are not always drawn.
In your answer, state the number alone without any accompanying words.

Answer with Realative Inhibitory Activity PKG of C[C@H](N)C(=O)N1CCCN(S(O)(O)c2cccc3cncc(F)c23)[C@@H](C)C1 [Example 3, dihydrochloride] measured for Purified bovine PKGα (Bos taurus, UniProt P00516).
11

Determine reported Realative Inhibitory Activity PKG for CNCC(=O)N1CCCN(S(=O)(=O)c2cccc3cncc(F)c23)[C@@H](C)C1.Cl.Cl ; test system: Purified bovine PKGα (Bos taurus, UniProt P00516).
933

Please report the measured Realative Inhibitory Activity PKG for CC[C@H](N)C(=O)N1CCCN(S(O)(O)c2cccc3cncc(F)c23)[C@@H](C)C1 [Example 11, dihydrochloride] tested on Purified bovine PKGα (Bos taurus, UniProt P00516).
79

State Realative Inhibitory Activity PKG (Purified bovine PKGα (Bos taurus, UniProt P00516)) of CC[C@@H](N)C(=O)N1CCCN(S(O)(O)c2cccc3cncc(F)c23)[C@@H](C)C1 [Example 12, dihydrochloride] .
92

Please report the measured Realative Inhibitory Activity PKG for CC(C)[C@@H](N)C(=O)N1CCCN(S(O)(O)c2cccc3cncc(F)c23)[C@@H](C)C1 [Example 6, dihydrochloride] tested on Purified bovine PKGα (Bos taurus, UniProt P00516).
30
